PROCEDURE_TEXT: Solubility in aqueous buffer
Assay type: physicochemical
CONDITION_SET: 100 mM phosphate buffer (pH 7.4, containing 100 mM NaCl), room temperature

COMPOUND	solubility
O=C(NCCOCCOCCNc1nc(OCCOCCOCCOc2c(Br)cc3[nH]cc(OC4O[C@H](CO)[C@@H](O)[C@H](O)[C@H]4O)c3c2Br)nc(N2CC[N+](CCCO)(CCCS(=O)(=O)[O-])CC2)n1)OC[C@@H]1[C@@H]2CCC#CCC[C@@H]21 (stereo partly shown) [compound 41]	> 400 µM

---

Measured Yield (%) of indigoid dye, β-glucosidase from almonds, listed per entry for reference.
Test system: β-glucosidase from almonds
PROCEDURE_TEXT: Indigogenic reaction with β-glucosidase from almonds
Assay type: biochemical
CONDITION_SET: indoxyl 1 mM, enzyme 1 unit/mL, 0.01M acetate buffer pH 5, 5% DMF, 37° C., 16-19 h; ε = 1.27 × 10^4 M^−1 cm^−1 measured for 4
READOUT_NAME: Yield (%) of indigoid dye, β-glucosidase from almonds

COMPOUND	COMPARATIVE_SIGN	RECORDED_MEASUREMENT
COC(=O)COc1c(Br)cc2[nH]cc(O[C@@H]3O[C@H](CO)[C@@H](O)[C@H](O)[C@H]3O)c2c1Br	=	122
COC(=O)COc1ccc2[nH]cc(O[C@@H]3O[C@H](CO)[C@@H](O)[C@H](O)[C@H]3O)c2c1Br	=	68
C#CCOc1c(Br)cc2[nH]cc(O[C@@H]3O[C@H](CO)[C@@H](O)[C@H](O)[C@H]3O)c2c1Br	=	105
COC(=O)COc1ccc2[nH]cc(OC3O[C@H](CO)[C@@H](O)[C@H](O)[C@H]3O)c2c1 (stereo partly shown)	<	1
C#CCOc1ccc2[nH]cc(O[C@@H]3O[C@H](CO)[C@@H](O)[C@H](O)[C@H]3O)c2c1Br	=	56
COc1nc(Oc2ccc3[nH]cc(O[C@@H]4O[C@H](CO)[C@@H](O)[C@H](O)[C@H]4O)c3c2)nc(N2CCOCC2)n1	<	1
C#CCOc1ccc2[nH]cc(O[C@@H]3O[C@H](CO)[C@@H](O)[C@H](O)[C@H]3O)c2c1	<	5

---

TESTED_SYSTEM: β-glucosidase from Agrobacterium (Agrobacterium sp., UniProt P12614)
Construct: purchased Megazyme
Sequence (P12614 whole entry): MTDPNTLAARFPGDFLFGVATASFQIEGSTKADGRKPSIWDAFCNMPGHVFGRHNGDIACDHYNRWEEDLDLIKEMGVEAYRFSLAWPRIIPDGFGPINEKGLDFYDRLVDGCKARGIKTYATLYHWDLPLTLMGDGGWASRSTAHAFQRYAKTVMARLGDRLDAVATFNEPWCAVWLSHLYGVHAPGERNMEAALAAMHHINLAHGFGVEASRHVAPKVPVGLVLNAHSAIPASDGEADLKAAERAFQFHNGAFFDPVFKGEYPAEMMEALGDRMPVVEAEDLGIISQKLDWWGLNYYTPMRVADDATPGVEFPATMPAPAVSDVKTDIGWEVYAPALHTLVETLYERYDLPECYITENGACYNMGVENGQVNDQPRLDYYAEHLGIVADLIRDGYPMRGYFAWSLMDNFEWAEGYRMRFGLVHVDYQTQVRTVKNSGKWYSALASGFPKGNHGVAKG
PROCEDURE_TEXT: Indigogenic reaction with β-glucosidase from Agrobacterium
Assay type: biochemical
CONDITION_SET: indoxyl 100 μM, enzyme 200 nM, 0.05M phosphate buffer pH 7.0, 2% DMF, 37° C., 2 h, three repeats; ε = 1.27 × 10^4 M^−1 cm^−1 measured for 4
Listed below: Yield (%) of indigoid dye, β-glucosidase from Agrobacterium values for each entry.
READOUT_NAME: Yield (%) of indigoid dye, β-glucosidase from Agrobacterium

COMPOUND	RECORDED_MEASUREMENT
OC[C@H]1O[C@@H](Oc2c[nH]c3cc(Br)c(OC[C@@H]4[C@@H]5CCC#CCC[C@@H]54)c(Br)c23)[C@H](O)[C@@H](O)[C@@H]1O [compound 30]	21
COC(=O)COc1c(Br)cc2[nH]cc(O[C@@H]3O[C@H](CO)[C@@H](O)[C@H](O)[C@H]3O)c2c1Br [compound 24]	209
COC(=O)COc1ccc2[nH]cc(OC3O[C@H](CO)[C@@H](O)[C@H](O)[C@H]3O)c2c1 (stereo partly drawn) [compound 22]	30
